Where do these numbers come from? They come from ChEMBL document CHEMBL4190189.

Test: Cytotoxicity against human EPG85-257RNOV cells assessed as reduction in cell viability after 5 days by SRB assay
Format: functional, cell-based
Details: 120 h
pIC50: −log10 of the molar value.
property-name: pIC50

Sample answers from the record:
[[record]]
smiles_repr = "CCOC(=O)O[C@H]1[C@@H](C)C[C@]2(OC(C)=O)C(=O)/C(C)=C/[C@@H]3[C@H](CC/C(C)=C\\[C@@H]12)C3(C)C"
observed_measurement = "> 5.00"

[[record]]
smiles_repr = "CC(=O)O[C@]12C[C@H](C)[C@H](OC(=O)C34CC5CC(CC(C5)C3)C4)[C@@H]1/C=C(/C)CC[C@H]1[C@@H](/C=C(\\C)C2=O)C1(C)C"
observed_measurement = "> 5.00"

[[record]]
smiles_repr = "CC(=O)O[C@]12C[C@H](C)[C@H](OC(=O)c3cccc(C)c3)[C@@H]1/C=C(/C)CC[C@H]1[C@@H](/C=C(\\C)C2=O)C1(C)C"
observed_measurement = "> 5.00"

[[record]]
smiles_repr = "CC(=O)O[C@]12C[C@H](C)[C@H](OC(=O)Oc3ccccc3)[C@@H]1/C=C(/C)CC[C@H]1[C@@H](/C=C(\\C)C2=O)C1(C)C"
observed_measurement = 5.26

[[record]]
smiles_repr = "C/C1=C/[C@H]2[C@@H](OC(=O)c3ccc4ccccc4c3)[C@@H](C)C[C@]2(O)C(=O)/C(C)=C/[C@@H]2[C@H](CC1)C2(C)C"
observed_measurement = "> 5.00"


# next compound below
Consider CC(=O)O[C@]12C[C@H](C)[C@H](OC(=O)c3ccc(C(F)(F)F)cc3)[C@@H]1/C=C(/C)CC[C@H]1[C@@H](/C=C(\C)C2=O)C1(C)C . Its measured pIC50 is > 5.00

###

Target: ABCB1 (P-glycoprotein) ATPase (Homo sapiens, UniProt P08183)
Sequence (P08183 whole entry): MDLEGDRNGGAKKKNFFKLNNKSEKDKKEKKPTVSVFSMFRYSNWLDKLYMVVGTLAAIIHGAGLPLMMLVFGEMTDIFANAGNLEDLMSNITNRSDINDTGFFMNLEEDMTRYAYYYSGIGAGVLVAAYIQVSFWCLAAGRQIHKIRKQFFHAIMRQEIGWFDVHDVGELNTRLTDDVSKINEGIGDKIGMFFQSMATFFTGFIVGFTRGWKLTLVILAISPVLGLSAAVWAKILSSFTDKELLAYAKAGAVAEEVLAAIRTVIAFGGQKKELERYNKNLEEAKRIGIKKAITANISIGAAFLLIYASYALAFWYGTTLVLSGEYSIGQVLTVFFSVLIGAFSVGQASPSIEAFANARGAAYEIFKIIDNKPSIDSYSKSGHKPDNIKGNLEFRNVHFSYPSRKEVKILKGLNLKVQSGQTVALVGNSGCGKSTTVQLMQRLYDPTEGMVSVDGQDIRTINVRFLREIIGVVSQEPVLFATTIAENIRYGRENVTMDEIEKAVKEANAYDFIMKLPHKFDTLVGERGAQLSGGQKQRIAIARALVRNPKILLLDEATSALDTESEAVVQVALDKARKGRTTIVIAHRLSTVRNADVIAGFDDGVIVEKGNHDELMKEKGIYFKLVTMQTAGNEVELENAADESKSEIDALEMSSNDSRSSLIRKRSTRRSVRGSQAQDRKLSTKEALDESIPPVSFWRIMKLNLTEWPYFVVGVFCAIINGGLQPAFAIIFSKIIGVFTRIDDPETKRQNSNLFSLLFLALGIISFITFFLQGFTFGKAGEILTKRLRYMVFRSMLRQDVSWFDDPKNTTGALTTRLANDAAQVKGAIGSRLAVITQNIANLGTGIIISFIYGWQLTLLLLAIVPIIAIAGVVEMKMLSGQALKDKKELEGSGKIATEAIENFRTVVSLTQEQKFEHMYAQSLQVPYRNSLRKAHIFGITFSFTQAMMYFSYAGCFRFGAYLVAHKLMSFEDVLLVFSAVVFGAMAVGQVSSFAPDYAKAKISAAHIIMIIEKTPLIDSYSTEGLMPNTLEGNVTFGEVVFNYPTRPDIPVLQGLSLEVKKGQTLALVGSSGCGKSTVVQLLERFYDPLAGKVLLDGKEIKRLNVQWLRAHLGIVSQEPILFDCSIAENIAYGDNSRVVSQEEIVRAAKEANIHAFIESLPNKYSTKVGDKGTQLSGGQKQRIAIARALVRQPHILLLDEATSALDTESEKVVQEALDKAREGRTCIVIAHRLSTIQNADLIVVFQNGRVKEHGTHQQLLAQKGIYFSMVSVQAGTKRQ
Test: Inhibition of human ABCB1 ATPase activity expressed in Sf9 insect cell membranes assessed as reduction in verapamil-stimulated vanadate-sensitive ATPase activity at 1.56 to 25 uM measured after 10 mins by colorimetric method relative to control
Settings: Sf9 insect cell membranes expressing human ABCB1, probe verapamil (ATPase stimulator)
property-name: inhibition at 10 min (%)
Dear colleague, please return just the value in %, with no unit written.

Test item COc1ccccc1C(=O)O[C@H]1[C@@H](C)C[C@]2(OC(C)=O)C(=O)/C(C)=C/[C@@H]3[C@H](CC/C(C)=C\[C@@H]12)C3(C)C ; ABCB1 (P-glycoprotein) ATPase (Homo sapiens, UniProt P08183); reported inhibition at 10 min was 100

###

Target: ATP-dependent translocase ABCB1 (Homo sapiens)
Test: Modulation of human ABCB1 expressed in mouse L5178Y cells assessed as fluorescence activity ratio at 20 uM pretreated for 10 mins followed by rhodamine-123 addition measured after 20 mins by flow cytometry (reference value: 0.87)
Assay type: cell-based
property-name: Ratio
Lab note: record the figure alone, no unit after it.

[[record]]
smiles_repr = "CC(=O)O[C@]12C[C@H](C)[C@H](OC(=O)c3ccc(C(F)(F)F)cc3)[C@@H]1/C=C(/C)CC[C@H]1[C@@H](/C=C(\\C)C2=O)C1(C)C"
property_name = "Ratio"
observed_measurement = 25.4

[[record]]
smiles_repr = "C/C1=C/[C@H]2[C@@H](OC(=O)c3ccc(-c4ccccc4)cc3)[C@@H](C)C[C@]2(O)C(=O)/C(C)=C/[C@@H]2[C@H](CC1)C2(C)C"
property_name = "Ratio"
observed_measurement = 19


Consider COc1cccc(C(=O)O[C@H]2[C@@H](C)C[C@]3(OC(C)=O)C(=O)/C(C)=C/[C@@H]4[C@H](CC/C(C)=C\[C@@H]23)C4(C)C)c1 . Its measured Ratio is 36.4
